System Under Test: Polyunsaturated fatty acid 5-lipoxygenase (Homo sapiens)
Sequence (P09917 whole entry): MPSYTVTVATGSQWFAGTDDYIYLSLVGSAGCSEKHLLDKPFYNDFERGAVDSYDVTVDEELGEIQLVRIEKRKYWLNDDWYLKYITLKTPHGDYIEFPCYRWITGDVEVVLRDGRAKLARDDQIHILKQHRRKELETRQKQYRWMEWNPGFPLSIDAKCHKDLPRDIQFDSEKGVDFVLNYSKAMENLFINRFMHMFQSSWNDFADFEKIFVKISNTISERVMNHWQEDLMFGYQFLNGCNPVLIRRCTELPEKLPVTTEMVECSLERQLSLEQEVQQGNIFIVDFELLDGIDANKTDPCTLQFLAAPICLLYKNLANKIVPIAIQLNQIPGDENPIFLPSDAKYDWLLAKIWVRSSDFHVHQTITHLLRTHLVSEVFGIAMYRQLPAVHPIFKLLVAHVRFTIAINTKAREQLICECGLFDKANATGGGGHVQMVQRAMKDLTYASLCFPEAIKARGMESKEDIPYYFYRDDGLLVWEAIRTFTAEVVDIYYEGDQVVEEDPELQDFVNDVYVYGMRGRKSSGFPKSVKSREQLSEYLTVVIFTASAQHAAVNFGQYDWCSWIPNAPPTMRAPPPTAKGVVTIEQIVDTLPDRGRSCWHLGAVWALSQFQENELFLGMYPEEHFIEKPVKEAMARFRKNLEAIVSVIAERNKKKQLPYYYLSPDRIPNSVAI
Assay Protocol: Inhibition of 5-lipoxygenase in human neutrophils assessed as inhibition of A23187-induced product formation using arachidonic acid as substrate preincubated for 15 mins followed by substrate and A23187 addition measured after 10 mins by RP-HPLC method
Measurement Type: pIC50
Numbers only, as −log10 of the molar value.

Reference set, count: 2
COC1=CC(=O)C(OC)=C(CCCCCCCCO)C1=O : 6.48
CCCCCCCCCCCCCc1c(O)c(O)cc(OC)c1OC : 7.55

Fill in pIC50 for each of the 4 molecules listed.
1. COC1=CC(=O)C(OC)=C(CCCCCCCCCCO)C1=O
2. CCCCCCCCCCCCCc1c(O)c(O)cc(OC)c1O
3. COC1=CC(=O)C(=O)C(CCCCCCCCCCO)=C1OC
4. CCCCCCCCCCCCCc1c(O)c(OC)cc(O)c1OC

Response line:
1: 6.26; 2: 5.80; 3: 6.44; 4: 6.51
